- MEASUREMENT_TARGET: human ether-à-go-go-related gene (hERG) potassium channel (human)
- Sequence (Q12809 whole entry, looked up): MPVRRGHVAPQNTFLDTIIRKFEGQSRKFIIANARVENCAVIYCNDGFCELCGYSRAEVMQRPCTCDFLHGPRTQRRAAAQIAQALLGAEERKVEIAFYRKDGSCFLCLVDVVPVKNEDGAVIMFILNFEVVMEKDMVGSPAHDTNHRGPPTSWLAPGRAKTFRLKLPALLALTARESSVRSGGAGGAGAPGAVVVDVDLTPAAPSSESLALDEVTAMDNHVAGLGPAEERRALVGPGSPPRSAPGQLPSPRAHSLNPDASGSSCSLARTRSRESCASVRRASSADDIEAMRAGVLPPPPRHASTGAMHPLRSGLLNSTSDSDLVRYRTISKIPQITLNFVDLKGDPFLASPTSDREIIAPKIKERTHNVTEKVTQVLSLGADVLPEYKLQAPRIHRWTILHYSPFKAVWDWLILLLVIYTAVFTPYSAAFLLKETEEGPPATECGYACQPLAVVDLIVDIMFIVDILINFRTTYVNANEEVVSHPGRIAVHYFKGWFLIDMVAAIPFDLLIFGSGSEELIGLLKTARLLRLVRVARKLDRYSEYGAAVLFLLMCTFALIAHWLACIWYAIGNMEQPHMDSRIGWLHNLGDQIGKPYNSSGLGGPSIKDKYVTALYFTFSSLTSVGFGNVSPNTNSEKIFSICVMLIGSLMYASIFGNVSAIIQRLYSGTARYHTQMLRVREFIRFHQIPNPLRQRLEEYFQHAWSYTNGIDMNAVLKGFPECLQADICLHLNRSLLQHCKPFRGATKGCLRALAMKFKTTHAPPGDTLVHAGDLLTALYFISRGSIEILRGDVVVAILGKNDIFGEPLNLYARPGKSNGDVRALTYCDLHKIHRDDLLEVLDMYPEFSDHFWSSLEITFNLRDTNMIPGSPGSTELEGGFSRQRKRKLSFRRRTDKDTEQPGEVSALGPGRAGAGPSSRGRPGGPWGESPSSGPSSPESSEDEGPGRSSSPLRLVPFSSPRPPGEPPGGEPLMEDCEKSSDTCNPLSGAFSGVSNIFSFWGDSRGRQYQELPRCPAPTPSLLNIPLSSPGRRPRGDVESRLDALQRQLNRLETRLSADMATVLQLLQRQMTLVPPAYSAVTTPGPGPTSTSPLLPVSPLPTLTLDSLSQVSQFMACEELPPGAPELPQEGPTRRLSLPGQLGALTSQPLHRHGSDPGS
- ASSAY_PROTOCOL: primary screen, population patch clamp on CHO cells stably expressing hERG; higher = less effect of the substance
Among all 310,000 compounds or so, about 14,000 (4.5%) showed an effect of 50% or more. The effect is printed as a negative number. This is one part of a sample in which strong results are shown more often than they occur.
PROPERTY_LABEL: hERG current change (%, negative = inhibition) at 10uM (%)

COMPOUND: Cc1ccc(N2CCOCC2)c2c1C(=O)c1ccccc1C2=O
MEASUREMENT_TARGET: human ether-à-go-go-related gene (hERG) potassium channel (human)
UNIT_OF_MEASUREMENT: %
EXPERIMENTAL_VALUE: -19.1

COMPOUND: CCc1cc(C(=O)N2CCN(c3ccccn3)CC2)sc1C
MEASUREMENT_TARGET: human ether-à-go-go-related gene (hERG) potassium channel (human)
UNIT_OF_MEASUREMENT: %
EXPERIMENTAL_VALUE: -3.12

COMPOUND: Cc1ccc(NC(=O)CCS(=O)(=O)c2cccc3nonc23)c(Br)c1
MEASUREMENT_TARGET: human ether-à-go-go-related gene (hERG) potassium channel (human)
UNIT_OF_MEASUREMENT: %
EXPERIMENTAL_VALUE: 6.97

COMPOUND: Cc1oc2cc(O)ccc2c(=O)c1Oc1ccccc1
MEASUREMENT_TARGET: human ether-à-go-go-related gene (hERG) potassium channel (human)
UNIT_OF_MEASUREMENT: %
EXPERIMENTAL_VALUE: -10.2

COMPOUND: O=C(NNS(=O)(=O)c1ccc([N+](=O)[O-])cc1)C(=O)Nc1cccc(C(=O)O)c1
MEASUREMENT_TARGET: human ether-à-go-go-related gene (hERG) potassium channel (human)
UNIT_OF_MEASUREMENT: %
EXPERIMENTAL_VALUE: 11.9

COMPOUND: Cl.NCC(O)(c1ccc(Cl)cc1)c1ccc(Cl)cc1
MEASUREMENT_TARGET: human ether-à-go-go-related gene (hERG) potassium channel (human)
UNIT_OF_MEASUREMENT: %
EXPERIMENTAL_VALUE: -5.47

COMPOUND: Cc1ccc2cc(C)c3nnc(SCC(=O)NCc4ccco4)n3c2c1
MEASUREMENT_TARGET: human ether-à-go-go-related gene (hERG) potassium channel (human);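 further: peak tail current of the secondary pulse compared with the same well before compound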
UNIT_OF_MEASUREMENT: %
EXPERIMENTAL_VALUE: -25.5

COMPOUND: COc1ccc(C(NC(N)=O)c2ccccc2)cc1 (stereo not shown)
MEASUREMENT_TARGET: human ether-à-go-go-related gene (hERG) potassium channel (human);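 further: peak tail current of the secondary pulse compared with the same well before compound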
UNIT_OF_MEASUREMENT: %
EXPERIMENTAL_VALUE: 10.3

COMPOUND: COc1ccc(/C=C/c2cc(C(F)(F)F)on2)cc1
MEASUREMENT_TARGET: human ether-à-go-go-related gene (hERG) potassium channel (human);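 further: peak tail current of the secondary pulse compared with the same well before compound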
UNIT_OF_MEASUREMENT: %
EXPERIMENTAL_VALUE: 16.4

COMPOUND: O=C1c2ccccc2C(=O)c2c1cccc2N1CCOCC1
MEASUREMENT_TARGET: human ether-à-go-go-related gene (hERG) potassium channel (human);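 further: peak tail current of the secondary pulse compared with the same well before compound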
UNIT_OF_MEASUREMENT: %
EXPERIMENTAL_VALUE: -30.4
